system: OCI-Ly19; assay: CellTiter-Glo cell viability assay; type: cell-based; settings: Homo sapiens, OCI-LY19, 72 h
pEC50: −log10 of the molar value.
Below, each entry is listed alongside its reported pEC50.
outcome.measure: pEC50

1) CCN1CCN(Cc2ccc(NC(=O)c3ccc(C)c(Oc4cc(N)ncn4)c3)cc2C(F)(F)F)CC1: 5.03
2) CCN1CCN(Cc2ccc(NC(=O)c3ccc(C)c(Oc4cc(Nc5ccn(C)n5)ncn4)c3)cc2C(F)(F)F)CC1: 6.68
3) CCN1CCN(Cc2ccc(NC(=O)c3ccc(C)c(Oc4cc(Nc5ccn[nH]5)ncn4)c3)cc2C(F)(F)F)CC1: 6.52
4) CCN1CCN(Cc2ccc(NC(=O)c3ccc(C)c(Oc4cc(NC5COC5)ncn4)c3)cc2C(F)(F)F)CC1: 5.64
5) CCC(=O)Nc1cc(Oc2cc(C(=O)Nc3ccc(CN4CCN(CC)CC4)c(C(F)(F)F)c3)ccc2C)ncn1: 5.76
6) C=CC(=O)NNc1cc(Oc2cc(C(=O)Nc3ccc(CN4CCN(CC)CC4)c(C(F)(F)F)c3)ccc2C)ncn1: 5.56
7) CCN1CCN(Cc2ccc(NC(=O)c3ccc(C)c(Oc4ccnc(Nc5cnoc5)n4)c3)cc2C(F)(F)F)CC1: 6.51

---

system: MWCL-1; test: CellTiter-Glo cell viability assay; format: cell-based; settings: 72 h
Below, each entry is listed alongside its reported EC50.
outcome.measure: EC50 (µM)

1. CCN1CCN(Cc2ccc(NC(=O)c3ccc(C)c(Oc4cc(NC5CNC5)ncn4)c3)cc2C(F)(F)F)CC1: 24.8
2. C=CC(=O)NNc1cc(Oc2cc(C(=O)Nc3ccc(CN4CCN(CC)CC4)c(C(F)(F)F)c3)ccc2C)ncn1: 4.09
3. C=CC(=O)Nc1cc(Oc2cc(C(=O)Nc3ccc(CN4CCN(CC)CC4)c(C(F)(F)F)c3)ccc2C)ncn1: 0.202
4. CCN1CCN(Cc2ccc(NC(=O)c3ccc(C)c(Oc4cc(NC(=O)C5CC5)ncn4)c3)cc2C(F)(F)F)CC1: 0.91
5. CCN1CCN(Cc2ccc(NC(=O)c3ccc(C)c(Oc4cc(N)ncn4)c3)cc2C(F)(F)F)CC1: 1.15
6. CCN1CCN(Cc2ccc(NC(=O)c3ccc(C)c(Oc4cc(Nc5cn[nH]c5)ncn4)c3)cc2C(F)(F)F)CC1: 0.071
7. CCN1CCN(Cc2ccc(NC(=O)c3ccc(C)c(Oc4cc(Nc5ccn(C)n5)ncn4)c3)cc2C(F)(F)F)CC1: 0.075
8. CCC(=O)Nc1cc(Oc2cc(C(=O)Nc3ccc(CN4CCN(CC)CC4)c(C(F)(F)F)c3)ccc2C)ncn1: 1.35
9. CCN1CCN(Cc2ccc(NC(=O)c3ccc(C)c(Oc4cc(Nc5cnoc5)ncn4)c3)cc2C(F)(F)F)CC1: 1.71
10. CCN1CCN(Cc2ccc(NC(=O)c3ccc(C)c(Oc4cc(NC5COC5)ncn4)c3)cc2C(F)(F)F)CC1: 1.76
11. CCN1CCN(Cc2ccc(NC(=O)c3ccc(C)c(Oc4cc(Nc5ccn[nH]5)ncn4)c3)cc2C(F)(F)F)CC1: 0.118
12. Cc1ccc(C(=O)Nc2cccc(C(C)(C)C#N)c2)cc1Oc1ncnc2[nH]ccc12: 1.44
13. CCN1CCN(Cc2ccc(NC(=O)c3ccc(C)c(Oc4cc(NNC(C)=O)ncn4)c3)cc2C(F)(F)F)CC1: 18.7
14. CCN1CCN(Cc2ccc(NC(=O)c3ccc(C)c(Oc4ccnc(Nc5cnoc5)n4)c3)cc2C(F)(F)F)CC1: 0.718
15. CCN1CCN(Cc2ccc(NC(=O)c3ccc(C)c(Oc4ccnc(Nc5cnn(C)c5)n4)c3)cc2C(F)(F)F)CC1: 0.128
16. CCN1CCN(Cc2ccc(NC(=O)c3ccc(C)c(Oc4cc(NC)ncn4)c3)cc2C(F)(F)F)CC1: 3.99
